Tested on: Mus musculus
Assay: Toxicity in human A2780 cells xenografted nu/nu mouse at 5 mg/kg, ip administered every 3 days for 14 days
Type: organism-based
Design: dose 5 mg/kg, route intraperitoneal
Details: in vivo
QUANTITY NAME: Activity

>>> result("CC(C)CNC(=O)C(C)(C)c1ccc(S(=O)(=O)/C=C/C#N)cc1")
"Non-toxic"
>>> result("CC(C)(C(=O)Nc1ccccc1)c1ccc(S(=O)(=O)/C=C/C#N)cc1")
"Non-toxic"
>>> result("CC(C)(C)c1ccc(S/C=C/C#N)cc1")
"Non-toxic"
>>> result("CC(C)(C)c1ccc(S(=O)(=O)/C=C/C#N)cc1")
"Non-toxic"
